Measured Ki by item
Target: Fatty-acid amide hydrolase 1 (Rattus norvegicus, UniProt P97612)
Sequence (P97612 whole entry): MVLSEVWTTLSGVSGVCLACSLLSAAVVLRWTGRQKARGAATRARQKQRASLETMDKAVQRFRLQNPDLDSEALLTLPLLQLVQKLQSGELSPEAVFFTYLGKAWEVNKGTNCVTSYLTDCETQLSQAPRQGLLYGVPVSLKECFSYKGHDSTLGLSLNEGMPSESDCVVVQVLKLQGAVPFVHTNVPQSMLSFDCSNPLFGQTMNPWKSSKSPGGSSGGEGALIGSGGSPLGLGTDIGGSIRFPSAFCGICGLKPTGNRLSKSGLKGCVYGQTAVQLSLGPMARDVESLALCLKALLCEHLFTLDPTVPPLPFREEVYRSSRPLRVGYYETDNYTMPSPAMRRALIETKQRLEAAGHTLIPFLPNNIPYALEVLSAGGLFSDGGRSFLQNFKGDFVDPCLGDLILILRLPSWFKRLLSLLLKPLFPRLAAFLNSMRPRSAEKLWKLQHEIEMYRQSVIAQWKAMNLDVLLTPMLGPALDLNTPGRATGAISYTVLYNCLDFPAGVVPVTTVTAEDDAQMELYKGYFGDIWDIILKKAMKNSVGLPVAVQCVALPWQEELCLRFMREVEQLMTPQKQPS
Assay: Inhibition of recombinant rat FAAH preincubated for 3 hrs

(Q) Value wanted: Ki (Fatty-acid amide hydrolase 1 (Rattus norvegicus, UniProt P97612)) of entry `Cc1cnn(C(=O)CCCCCc2ccccc2)c1`
(A) > 5 µM

(Q) Value wanted: Ki (Fatty-acid amide hydrolase 1 (Rattus norvegicus, UniProt P97612)) of entry `N#Cc1cnn(C(=O)CCCCCc2ccccc2)c1`
(A) > 5 µM

(Q) Value wanted: Ki (Fatty-acid amide hydrolase 1 (Rattus norvegicus, UniProt P97612)) of entry `Cc1cnn(C(=O)N2CCCCC2)c1`
(A) > 1 µM

(Q) Value wanted: Ki (Fatty-acid amide hydrolase 1 (Rattus norvegicus, UniProt P97612)) of entry `O=C(CCCCCc1ccccc1)n1cccn1`
(A) > 5 µM

Here is another compound to look at.
(Q) Value wanted: Ki (Fatty-acid amide hydrolase 1 (Rattus norvegicus, UniProt P97612)) of entry `Cc1cnn(C(=O)OCCCCc2ccccc2)c1`
(A) > 5 µM
